Quick reference: apparent KD of MS2 coat protein of the listed items.
# Test system: MS2 coat protein
# Protocol: apparent KD of MS2 coat protein; higher = weaker reporter binding
# Test Parameters: Eterna round: R107; input ligand: theophylline 20 uM
Assay Metric: apparent KD of MS2 coat protein (nM)

>>> reported("AAGGUGAUCCUCGAUACCAGCUCAACAUGAGGAUCACCCAUGUAAGCCUGGAAACAGGCGAGCCCUUGGCAGCGAGUUACAUCAA [(M)'-(Theo1)-(Ms2)-(Theo2)-(M'')]")
78.2
>>> reported("GUAGCGACGACGGCCGCCACUCACAGGUGAGGGUAGACCAACCUUCACAUGAGGAUCACCCAUGUGAGGACCGGGUUGUCGCUAC [#12 Exclusion Tryptophan B]")
109
>>> reported("GGGCAAGAGGGAAGGAGCGUUAGCUGAGUCACAUGAGGAUCACCCAUGUCGCACAUAGUAUGACAGGUAGGUCGCCCUCUACCCU [SS-ArgB14]")
28.7
>>> reported("GCGGUCCACUUGGAUACCAGCAGAUUAAUAAACAUGAGGAUCACCCAUGUAAGCGCCUUGUGCCCUUGGCAGCCAGGGUGGUCAG [theeternabot_sameState_MS2_Theo_B_50]")
136
>>> reported("AUAUAUACAUGAGGAUCACCCAUGUUAUUACGAGGACCGGUACGGCCGCCACUCGAUAGAGUAGAAGUAAAUUGUAAUUCAUGUU [JR_ExcTryptoA_Sub016]")
15.6
>>> reported("AGCGUAUAGACGGAUACCAGCGCCGAUUAACAUGAGGAUCACCCAUGUAGUGUGGGUGGACGCCCUUGGCAGCCGAGUAUAGGUA [#07 Exclusion-TheophyllineB]")
115
>>> reported("GACAUGAGGAUCACCCAUGUACCGCGAGAAGGAGCGCGGAUAAACGCAGGUAGGUCGCUCGUGGGCUUAUAUUCAAUUGUAAGCU [Usence]")
43.1
>>> reported("AAUGGCCGUACCGGAAGGGUGAUCCUCAAACGAGGACCGGUACGGCCGCCACUCGAUAACAUGAGGAUCACCCAUGUAAUAAUAA [|T'-M'-Trp-Ms2|_Design13]")
481
>>> reported("GCUAGUGGCAGAAGGAGCGACAUUUAUAGUGGUCGAUACAUGAGGAUCACCCAUGUACUAUGUCAGGUAGGUCGCUGCCACUAGC [EAB NP+V+V2 #5]")
44.8
>>> reported("CCGUUUUAUGGCGACAUAGGGCGGACUGAAGGAGCGGUAUAAAAGCCAGGUAGGUCGCAGAGAUCCACAUGAGGAUCACCCAUGU [!0.aA]")
45.8
>>> reported("AAUAAAUCGCCUGAUACCAGCGCUGGCGGACAUGAGGAUCACCCAUGUGUUACAGGCGGACGCCCUUGGCAGCGGAGCGGGAUCU [U-Shape]")
21.4
>>> reported("UUGCAGAUCGGAAAGGUCCUGCUGUUCGAAGGAGCGGUAAAAGUACCAGGUAGGUCGCGAACAUGAGGAUCACCCAUGUUUGCAA [Usmaenbi]")
28.2
>>> reported("UUAUAUACUACGGCCGCCACUGAACAUGAGGAUCACCCAUGUAAUGUUCAGACGUCUUUAGACGACAGGACCGGGUAGAAUUAAA [Tryptophan B 1]")
114
>>> reported("UAAUAAGUACCGGUCCUCAGAUCCUCAUGACGAGGACCGGUACGGCCGCCACUCGAAACAUGAGGAUCACCCAUGUAAUAAUAAC [Brourdmod03]")
77
>>> reported("AGAUUACAUGUUAUAAUACGGUAUACUGAUACCAGUGUUUCUAUUCACCCUUGGCAGCAGCAACAUGAGGAUCACCCAUGUAUUA [JR_SSTheophyA_Sub017]")
21.4
>>> reported("CCCAUACAUGAGGAUCACCCAUGUGUUGAUACCAGCAUAUGUAGAUGCCCUUGGCAGCAAGCUUGGGUCACUGGAAAACAUCUAA [theeternabot_sameState_MS2_Theo_A_38]")
27.4
>>> reported("UCUUGGUCCGCAAGGACCUUGAGUUGCGAUACCAGCACGGUAACGUGCCCUUGGCAGCGCACAUGAGGAUCACCCAUGUGGUGUU [#1 Exclusion - Theophylline A Attempt #16 (HarryS)]")
348
>>> reported("AAUGUAUGGCACAUGAGGAUCACCCAUGUGCGAGGACCGGUACGGCCGCCACUCGGUCCUGGGUUCUUAUUACUAUACAUUAAUG [XTryp A #15]")
16
>>> reported("AUGUAGAACCGAAGGAGCGCGAUAACAUGAGGAUCACCCAUGUAGUUUUGGUGGCUUCGAUCGCAGGUAGGUCGCGGAAGUAGUA [#03 Exclusion - Arginine B]")
97.6
>>> reported("UGUAUGGACUGAAGGAGCGGAAAAUAAAUCUGAGGAUCACCCAGGUAAUAGGCGAAAGCCAUCCAGGUAGGUCGCAGUCCAUACU")
101
>>> reported("ACAUGAGGAUCACCCAUGUUCCUCGCCGAUACCAGUGAAGAAGUACGCCCUUGGCAGCGGAAAGAGUAUUUUGGAGAUGAGGUAC [6.Y]")
94.3
>>> reported("UCGCCCAGAAAGGAUUCCUGGGAUAUGGAAGGAGCGCUGAUGCCAGCAGGUAGGUCGCCAACGGACAUGAGGAUCACCCAUGUAC [Same State - Arginine A (Freestyle 7)]")
25.7
>>> reported("CACAUGAGGAUCACCCAUGUGUAAUAUGAAGGAGCGUCGGAAAUGACAGGUAGGUCGCAUGAAAUGCAAGUGUGUGAGGUUGUGA [EAA NP+V+V2 #12]")
17.7

----------
# Test system: MS2 coat protein
# Protocol: apparent KD of MS2 coat protein; designed switch direction (-1 OFF switch, 1 ON switch): -1; higher = weaker reporter binding
# Test Parameters: input ligand: FMN 200 uM
Assay Metric: apparent KD of MS2 coat protein (µM)

>>> reported("GGUUUACAAGGAUAUACAAAGGUCUUGUGAUCUGUGCGAGGACAUGAGGAUCACCCAUGUAGAAGGUGUCUGCU [Eternabot (L2) Solution 77] (Eterna round: R97, puzzle: Exclusion 2)")
0.193
>>> reported("CAGUACUGAGGAUAUACAUGAGGAUCACCCAUGUGUCUAAUAUUAGGAAACUAGGUAUGUAGAAGGCAGUACUG [Omei Ex3 Mod of Eli 4.27 v6] (Eterna round: R97, puzzle: Exclusion 3)")
0.318
>>> reported("AUUUAGCAAGUUAGAUCCUACAUGAGGAUCACCCAUGUUGUUCGUCUUAUUUGAAGACAACACAAAAGUGUUGUCUU [Omei Mir OFFv1 B3] (Eterna round: R97, puzzle: Sensor, turn-off variant 1)")
0.107

----------
# Tested on: MS2 coat protein
# Protocol: apparent KD of MS2 coat protein; designed switch direction (-1 OFF switch, 1 ON switch): -1; higher = weaker reporter binding
# Test Parameters: Eterna round: R98; input ligand: FMN 200 uM
Quick reference: apparent KD of MS2 coat protein of the listed items.
Assay Metric: apparent KD of MS2 coat protein (nM)

>>> reported("UAUAUAUAGGCAGGAUAUACAUGAAUAUAUAAUAUAAUAUAUAAUAUAACAUGAGGAUCACCCAUGUAGAAGGGCCAUAAUAUA [LRO031_Exclusion NG 2]")
109
>>> reported("CCAUAAAAGAUCCAUUUUUACAACAUGAGGAUCACCCAUGUGCAGGAUAUCGUGAAAGUUAAAUACGAGAAGGGCAAGAACUGC [JR_ExcNG3_Sub050]")
104
>>> reported("AUGACAGGCAGAGCGCAACGGCGUACAUGAGGAUCACCCAUGUAGGAUAUACUACACAAAGUGUAGUAGAAGGACAUGCGACGG [Ex NG2 #89]")
69
>>> reported("AUGACAGGCAGAGCGCAACGGCGUACAUGAGGAUCACCCAUGUAGGAUAUACUACACAAAGUGUAGUAGAAGGACAUGCGACGC [Ex NG2 #87]")
34.4
>>> reported("AGGACAGGCAGAGCGCAACGGCGUACAUGAGGAUCACCCAUGUAGGAUAUACUACACAAAGUGUAGUAGAAGGACAUGCGACGC [Ex NG2 #88]")
45.6
>>> reported("UGUUGUUACGCAGGAUAUUGCCAACAGGCAGUAGGAUAUCCGAAAGGAGAAGGAUCGCCAACAGGCGAGAAGGGCGGGUUAACA [pwkr exNG2 2xF7 2FMN.10.2]")
194
>>> reported("CCUUUAAAGAUCCAAAAUUACAACAUGAGGAUCACCCAUGUGCAGGAUAUCGUGCCAGUGAUGUACGAGAAGGGCAGACUCUGC [salish99_ExNG3_r2_015]")
95.2
>>> reported("UAUAUAUAGGCAGGAUAUACAUGUAUAUAUAAUUUUUUAUAUAUUAUUACAUGAGGAUCACCCAUGUAGAAGGGCCUUAUUAUA [LRO039_Exclusion NG 2]")
62.8
